Value source: patent US11040036B2

Target: PKR K410E (Homo sapiens, UniProt P30613, K410E)
Sequence (P30613 whole entry K410E): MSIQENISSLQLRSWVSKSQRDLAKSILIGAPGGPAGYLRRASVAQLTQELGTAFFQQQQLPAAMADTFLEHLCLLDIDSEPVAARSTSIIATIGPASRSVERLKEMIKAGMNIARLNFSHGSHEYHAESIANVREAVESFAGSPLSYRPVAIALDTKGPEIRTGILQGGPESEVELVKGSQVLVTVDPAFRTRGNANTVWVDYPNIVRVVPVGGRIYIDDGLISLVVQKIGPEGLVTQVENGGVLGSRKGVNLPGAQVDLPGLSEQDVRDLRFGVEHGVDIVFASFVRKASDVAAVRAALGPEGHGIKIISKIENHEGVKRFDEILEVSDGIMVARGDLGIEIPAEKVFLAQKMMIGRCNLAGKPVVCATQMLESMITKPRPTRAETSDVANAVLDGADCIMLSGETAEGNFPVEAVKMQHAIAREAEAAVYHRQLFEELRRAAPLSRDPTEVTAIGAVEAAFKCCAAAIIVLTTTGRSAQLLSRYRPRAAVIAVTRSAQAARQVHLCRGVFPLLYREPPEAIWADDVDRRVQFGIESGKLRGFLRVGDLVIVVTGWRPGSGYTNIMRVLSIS
Assay: PKR mutant assay (AC50), PKR K410E
Type: biochemical
Details: PKR K410E mutant enzyme
AC50 listing for selected compounds.
Parameter Measured: AC50

Cn1c2nc(Cc3cc[nH]n3)sc2c2cnn(Cc3nc(C#N)cs3)c(=O)c21; < 300 nM
Cn1c2nc(Cc3ncsc3F)sc2c2cnn(Cc3c[nH]nn3)c(=O)c21; < 300 nM
Cn1c2nc(Cc3cc[nH]n3)sc2c2cnn(Cc3coc(C(N)=O)n3)c(=O)c21; > 800 nM
Cn1c2nc(Cc3cc[nH]n3)sc2c2cnn(Cc3csc(F)n3)c(=O)c21; < 300 nM
Cn1c2nc(Cc3ccccn3)sc2c2cnn(Cc3cscn3)c(=O)c21; < 300 nM

----------
Target: wild type PKR (Homo sapiens)
Sequence (P30613 whole entry): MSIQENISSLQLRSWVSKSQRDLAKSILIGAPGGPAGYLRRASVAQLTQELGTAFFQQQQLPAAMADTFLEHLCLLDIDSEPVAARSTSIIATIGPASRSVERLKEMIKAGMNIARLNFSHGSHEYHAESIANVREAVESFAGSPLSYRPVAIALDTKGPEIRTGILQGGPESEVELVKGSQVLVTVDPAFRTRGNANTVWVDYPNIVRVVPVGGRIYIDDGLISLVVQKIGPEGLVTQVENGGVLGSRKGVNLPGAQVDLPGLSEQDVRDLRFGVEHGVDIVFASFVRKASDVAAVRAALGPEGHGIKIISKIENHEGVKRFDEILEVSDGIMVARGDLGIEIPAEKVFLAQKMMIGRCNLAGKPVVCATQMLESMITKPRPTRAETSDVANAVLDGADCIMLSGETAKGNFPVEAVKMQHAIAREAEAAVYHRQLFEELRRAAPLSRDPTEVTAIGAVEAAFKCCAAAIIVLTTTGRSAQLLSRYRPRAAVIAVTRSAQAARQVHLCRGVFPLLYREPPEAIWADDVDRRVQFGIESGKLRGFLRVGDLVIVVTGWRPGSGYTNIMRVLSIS
Assay: Cell based ATP assay in purified red blood cells
Design: endogenous in cells; host or cells: purified red blood cells from blood of healthy volunteers
Settings: RBCs, overnight at 37° C., ATP levels by Cell-Titer-Glo
Description: Example 16. Red Blood Cell (RBC) Purification Fresh blood drawn from healthy volunteers into K2EDTA tubes was collected. Whole blood was pelleted by spinning at 500 g for 10 minutes. Cut transfusion bag port off of Purecell leukocyte reduction neofilter (Fisher NCO267633) one (1) inch above filter. […] For cell based ATP assays, the compound as described herein was prepared in 100% DMSO as a 10 mM stock. […] ATP levels were read out using Cell-Titer-Glo (Promega).
Parameter Measured: AC50

Cn1c2nc(Cc3cscn3)sc2c2cnn(Cc3cc[nH]n3)c(=O)c21; ≤ 1000 nM
Cn1c2nc(Cc3cscn3)sc2c2cnn(Cc3cscn3)c(=O)c21; ≤ 1000 nM
Cn1c2nc(Cc3cc[nH]n3)sc2c2cnn(Cc3csc(Cl)n3)c(=O)c21; ≤ 1000 nM
Cn1c2nc(Cc3n[nH]cc3F)sc2c2cnn(Cc3n[nH]cc3Cl)c(=O)c21; ≤ 1000 nM
Cn1c2nc(Cc3ccccn3)sc2c2cnn(Cc3nccs3)c(=O)c21; ≤ 1000 nM
COc1scnc1Cc1nc2c(s1)c1cnn(Cc3cc[nH]n3)c(=O)c1n2C; ≤ 1000 nM
Cn1c2nc(Cc3csc(CO)n3)sc2c2cnn(Cc3nccs3)c(=O)c21; ≤ 1000 nM
Cn1cc(CN)c(Cn2ncc3c4sc(Cc5cc[nH]n5)nc4n(C)c3c2=O)n1; > 1000 nM
Cn1c2nc(Cc3cc[nH]n3)sc2c2cnn(Cc3ccc(C(N)=O)cn3)c(=O)c21; ≤ 1000 nM
Cn1c2nc(Cn3cccn3)sc2c2cnn(Cc3cc[nH]n3)c(=O)c21; ≤ 1000 nM
COc1scnc1Cn1ncc2c3sc(Cc4cc[nH]n4)nc3n(C)c2c1=O; ≤ 1000 nM
Cn1c2nc(Cc3ccccn3)sc2c2cnn(Cc3csc(N)n3)c(=O)c21; ≤ 1000 nM
Cn1nncc1Cn1ncc2c3sc(Cc4cc[nH]n4)nc3n(C)c2c1=O; > 1000 nM
Cn1c2nc(Cc3cc[nH]n3)sc2c2cnn(Cc3ncc(N)s3)c(=O)c21; ≤ 1000 nM
Cn1c2nc(Cc3cscn3)sc2c2cnn(Cc3c[nH]nn3)c(=O)c21; ≤ 1000 nM
COCc1cn(C)nc1Cn1ncc2c3sc(Cc4cc[nH]n4)nc3n(C)c2c1=O; > 1000 nM
Cn1c2nc(Cn3cnnc3)sc2c2cnn(Cc3cc[nH]n3)c(=O)c21; > 1000 nM
Cn1c2nc(Cc3c[nH]cn3)sc2c2cnn(Cc3ncsc3Cl)c(=O)c21; ≤ 1000 nM
Cn1c2nc(Cc3cscn3)sc2c2cnn(Cc3csc(N)n3)c(=O)c21; ≤ 1000 nM
Cn1c2nc(Cc3cc[nH]n3)sc2c2cnn(Cc3cc[nH]c(=O)c3)c(=O)c21; ≤ 1000 nM
Cn1ccc(Cn2ncc3c4sc(Cc5ccccn5)nc4n(C)c3c2=O)n1; ≤ 1000 nM
